Experiment: in vitro
Settings: human, hela cells, % viability
Record form. Attribute: viability at 28.5 h, 10 µM. Fill in for each entry.
// note: answer is a bare numeric in %

-- ask Bench note: what viability at 28.5 h, 10 µM did CC(C)CCC(C)NC(=O)c1ccc(Oc2ccc(F)cc2)cc1 (stereo not shown) [CBK295650] show?
-- reply 88.3

-- ask Bench note: what viability at 28.5 h, 10 µM did Cn1ccnc1C(NC(=O)C1C2CCCCC21)c1ccc(F)cc1 (stereo not shown) [CBK281441] show?
-- reply 98.7

-- ask Bench note: what viability at 28.5 h, 10 µM did COc1ccc([C@H]2CN(Cc3ccccc3)C[C@@H]2NC(=O)c2ccco2)cc1OC [CBK286478] show?
-- reply 88.4

-- ask Bench note: what viability at 28.5 h, 10 µM did COc1ccc(C2NC(C(=O)O)CS2)cc1CN1CCOCC1 (stereo not shown) [CBK287132] show?
-- reply 87.4

-- ask Bench note: what viability at 28.5 h, 10 µM did CC1CN(c2cc(CO)c(F)cn2)CC2(CCOCC2)O1 (stereo not shown) [CBK304773] show?
-- reply 91.9

-- ask Bench note: what viability at 28.5 h, 10 µM did O=C(N/N=C\c1c(F)cccc1Cl)c1ccncc1 [CBK023263] show?
-- reply 84.7

-- ask Bench note: what viability at 28.5 h, 10 µM did COc1ccc(-c2ccc3c(c2)C(=O)N2CC[C@H](NC(=O)C4CCCC4)[C@H]2C(=O)N3)cc1 [CBK289330] show?
-- reply 108

-- ask Bench note: what viability at 28.5 h, 10 µM did O=C(Cc1ncc(C(F)(F)F)cc1Cl)NO [CBK007437] show?
-- reply 85

-- ask Bench note: what viability at 28.5 h, 10 µM did CCOC(=O)Cn1nc(C)c(Cc2c(Cl)cccc2Cl)c1CC [CBK113223] show?
-- reply 85

-- ask Bench note: what viability at 28.5 h, 10 µM did O=C1c2ccccc2CN1c1ccccc1 [CBK113189] show?
-- reply 95.9

---

Record form. Attribute: viability at 28.5 h, 10 µM. Fill in for each entry.
Experiment: in vitro
Conditions: human, hela cells, % viability
// note: answer is a bare numeric in %

-- ask Bench note: what viability at 28.5 h, 10 µM did COC(=O)c1ccc2c(=O)n(CC3CCCO3)c(SCCO)nc2c1 (centres unmarked) show?
-- reply 109

-- ask Bench note: what viability at 28.5 h, 10 µM did O=C(CC1CCN(C(=O)c2ccc3nsnc3c2)CC1)N1CCN(c2ccccc2)CC1 show?
-- reply 85.9

-- ask Bench note: what viability at 28.5 h, 10 µM did O=C(COc1cccnc1)N1CCN(c2ccccc2)CC1 show?
-- reply 106

-- ask Bench note: what viability at 28.5 h, 10 µM did CN1CCN(Cc2nc3c([nH]2)c(=O)n(C)c(=O)n3C)CC1 show?
-- reply 104

-- ask Bench note: what viability at 28.5 h, 10 µM did CC(C)CCNCc1ccc(-c2cn(CC(=O)NCc3ccc(C(F)(F)F)cc3)cn2)cc1 show?
-- reply 91.7

-- ask Bench note: what viability at 28.5 h, 10 µM did Cc1cc(C)nc(NC2=NC3CCCCC3N2C(=O)Nc2ccc(Cl)c(Cl)c2)n1 (centres unmarked) show?
-- reply 97.5

-- ask Bench note: what viability at 28.5 h, 10 µM did O=C(CSc1ccc2nnc(-c3ccccc3)n2n1)NCc1ccco1 show?
-- reply 95.6

-- ask Bench note: what viability at 28.5 h, 10 µM did CCOC(=O)C1=C(C)NC(=O)NC1c1cccs1 (centres unmarked) show?
-- reply 78

-- ask Bench note: what viability at 28.5 h, 10 µM did Fc1ccc(-c2cncc(NCCCN3CCOCC3)n2)c(F)c1 show?
-- reply 91.3

-- ask Bench note: what viability at 28.5 h, 10 µM did CN(C)CCCNC(=O)c1cc(-c2ccc(Cl)cc2)[nH]n1 [CBK116564T] show?
-- reply 98.5

-- ask Bench note: what viability at 28.5 h, 10 µM did COc1ccc([C@@]23CC[C@@H](NC(=O)Nc4ccc(OC)c(C(F)(F)F)c4)C[C@@H]2N(C)CC3)cc1OC [CBK051268T] show?
-- reply 107

-- ask Bench note: what viability at 28.5 h, 10 µM did CCOC(=O)c1sc2nc(C(C)N(C)Cc3ccco3)[nH]c(=O)c2c1C (centres unmarked) show?
-- reply 106

-- ask Bench note: what viability at 28.5 h, 10 µM did O=C(Cc1ccccc1)N1CCN(CCCc2ccccc2)CC1 [CBK263451G] show?
-- reply 96.8

-- ask Bench note: what viability at 28.5 h, 10 µM did CCN(CC)CCNC1=Nc2ccccc2CCC1 show?
-- reply 94.7

-- ask Bench note: what viability at 28.5 h, 10 µM did CC(NC(=O)CCc1nc2ccccc2n1C)c1ccccn1 (centres unmarked) show?
-- reply 89

-- ask Bench note: what viability at 28.5 h, 10 µM did N=C1NS(=O)(=O)NC1c1ccc(Cl)cc1 (centres unmarked) show?
-- reply 88.4

-- ask Bench note: what viability at 28.5 h, 10 µM did COc1cc(NC(=O)NCCc2cccs2)cc(OC)c1OC show?
-- reply 94.6

-- ask Bench note: what viability at 28.5 h, 10 µM did Cc1nc(C)c(C(=O)C2=C(O)C(=O)N(CCCN3CCOCC3)C2c2ccncc2)s1 (centres unmarked) show?
-- reply 97.3

-- ask Bench note: what viability at 28.5 h, 10 µM did Cc1ccc(N(C(=O)COc2ccc(C(C)(C)C)cc2)C2C=CS(=O)(=O)C2)cc1 (centres unmarked) show?
-- reply 105

-- ask Bench note: what viability at 28.5 h, 10 µM did CC(CNC(=O)CCc1cn(C)c2ccccc12)N1CCOCC1 (centres unmarked) show?
-- reply 87.4

---

Record form. Attribute: viability at 28.5 h, 10 µM. Fill in for each entry.
Assay: in vitro
Details: human, hela cells, % viability
// note: answer is a bare numeric in %

-- ask Bench note: what viability at 28.5 h, 10 µM did Cc1ccc(Cn2ncc3c(NCCCN4CCOCC4)ncnc32)cc1 show?
-- reply 94.4

-- ask Bench note: what viability at 28.5 h, 10 µM did COc1ccccc1Nc1nc(N)nc(CSCCO)n1 show?
-- reply 91.4

-- ask Bench note: what viability at 28.5 h, 10 µM did CC(C)(CN)CN(Cc1ccncc1)C(=O)Nc1ccc(C(C)(C)C)cc1 [CBK002459C] show?
-- reply 82

-- ask Bench note: what viability at 28.5 h, 10 µM did CS(=O)(=O)Nc1ccc(C(=O)Nc2ccc(S(=O)(=O)N3CCOCC3)cc2)cc1 show?
-- reply 117

-- ask Bench note: what viability at 28.5 h, 10 µM did CCOC(=O)CN1CCN(S(=O)(=O)c2cc(Cl)ccc2Cl)CC1 show?
-- reply 91.1

-- ask Bench note: what viability at 28.5 h, 10 µM did Nc1cccc(-c2ccc(OC3CCNCC3)cc2)c1 [CBK126959T] show?
-- reply 83.9

-- ask Bench note: what viability at 28.5 h, 10 µM did CC(NC(=O)Cc1ccc(F)cc1)c1nc2cccnc2n1C(C)C (centres unmarked) show?
-- reply 88.7

-- ask Bench note: what viability at 28.5 h, 10 µM did Cc1nc(C)n(CC2CN(Cc3cn4ccccc4n3)CCO2)n1 (centres unmarked) show?
-- reply 97.1

-- ask Bench note: what viability at 28.5 h, 10 µM did COc1ccc(-c2cc(C(=O)NCCc3ccncc3)cnc2-c2cccc(C)c2)cn1 show?
-- reply 99.1

-- ask Bench note: what viability at 28.5 h, 10 µM did COc1cc(OCc2ccccc2)ccc1CN1CCN(Cc2ccc3c(c2)OCO3)CC1 show?
-- reply 97.9

-- ask Bench note: what viability at 28.5 h, 10 µM did FC(F)(F)c1cccc(-c2nccnc2NCc2cccs2)c1 show?
-- reply 105

-- ask Bench note: what viability at 28.5 h, 10 µM did Nc1nnc(C(=O)c2cc(Br)ccc2N)s1 show?
-- reply 102

-- ask Bench note: what viability at 28.5 h, 10 µM did COCC(O)CN(C)c1nc(-c2ccncc2)nc2ccccc12 (centres unmarked) show?
-- reply 78.7

-- ask Bench note: what viability at 28.5 h, 10 µM did CCOc1cccc(N2C(=O)CC(N3CCN(c4ccccn4)CC3)C2=O)c1 (centres unmarked) show?
-- reply 105

-- ask Bench note: what viability at 28.5 h, 10 µM did O=C(NC1CCCN(c2ncccn2)C1)c1ccc(-c2ccc(F)cc2)s1 (centres unmarked) show?
-- reply 88.5

-- ask Bench note: what viability at 28.5 h, 10 µM did Oc1cccc(/C=N/c2nnn[nH]2)c1 show?
-- reply 91.7

-- ask Bench note: what viability at 28.5 h, 10 µM did CC(CC(=O)O)CC(=O)NNc1ncc(Cl)cc1Cl (centres unmarked) show?
-- reply 102

-- ask Bench note: what viability at 28.5 h, 10 µM did CC1(C(=O)O)COC(c2ccc([N+](=O)[O-])cc2)OC1 (centres unmarked) show?
-- reply 87.1

-- ask Bench note: what viability at 28.5 h, 10 µM did CN(CC1CCCCO1)C(=O)c1ccc(-c2ccccc2C(N)=O)cc1 (centres unmarked) show?
-- reply 92.6

-- ask Bench note: what viability at 28.5 h, 10 µM did CCS(=O)(=O)c1nc2ccccc2n1CC(=O)Nc1ccccc1C(=O)OC show?
-- reply 90
